FYI, the data here is from patent US20240400675A1.

Each record here notes measured EC50.
Molecular target: T1, human CLDN6 (UniProt P56747 1-220)
T1 chain: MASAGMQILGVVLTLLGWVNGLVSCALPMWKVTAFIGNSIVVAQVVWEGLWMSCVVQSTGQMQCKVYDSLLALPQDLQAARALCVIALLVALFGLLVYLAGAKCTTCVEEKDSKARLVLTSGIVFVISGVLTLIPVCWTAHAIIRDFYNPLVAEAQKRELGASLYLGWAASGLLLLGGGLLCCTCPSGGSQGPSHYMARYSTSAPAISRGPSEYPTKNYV
Assay: HEK293E cell binding; avid
PROPERTY LABEL: EC50

INSERT INTO results (binder, test_result) VALUES
  ('XENP34220, humanized C6-30 H2L1 bivalent mAb (antibody, V domains shown) VH: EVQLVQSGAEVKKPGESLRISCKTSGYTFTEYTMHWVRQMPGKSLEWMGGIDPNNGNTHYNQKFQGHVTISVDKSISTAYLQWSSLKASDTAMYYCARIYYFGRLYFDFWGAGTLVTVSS VL: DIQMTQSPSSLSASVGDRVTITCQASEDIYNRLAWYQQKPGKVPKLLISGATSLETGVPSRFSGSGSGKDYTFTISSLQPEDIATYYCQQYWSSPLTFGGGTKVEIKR', '0.391 µg/mL'),
  ('XENP36025 H2.75_L1 (antibody, V domains shown) VH: EVQLVQSGAEVKKPGESLRISCKTSGYTFTEYTMHWVRQMPGKSLEWMGGIDPHNGNTHYNQKFQGHVTISVDKSISTAYLQWSSLKASDTAMYYCARIYYFGRLYFDFWGAGTLVTVSS VL: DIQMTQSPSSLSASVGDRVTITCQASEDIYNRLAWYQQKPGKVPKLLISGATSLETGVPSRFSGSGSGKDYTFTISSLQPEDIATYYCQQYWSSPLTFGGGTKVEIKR', '1.34 µg/mL'),
  ('XENP36022 H2.72_L1 (antibody, V domains shown) VH: EVQLVQSGAEVKKPGESLRISCKTSGYTFTEYTMHWVRQMPGKSLEWMGGIDANNGNTHYNQKFQGHVTISVDKSISTAYLQWSSLKASDTAMYYCARIYYFGRLYFDFWGAGTLVTVSS VL: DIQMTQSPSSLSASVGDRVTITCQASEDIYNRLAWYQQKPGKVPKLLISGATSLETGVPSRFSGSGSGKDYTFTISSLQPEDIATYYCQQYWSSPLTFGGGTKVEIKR', '0.514 µg/mL'),
  ('XENP36066 H2.119_L1 (antibody, V domains shown) VH: EVQLVQSGAEVKKPGESLRISCKTSGYTFTEYTMHWVRQMPGKSLEWMGGIDPNNGNTHYNQKFEGHVTISVDKSISTAYLQWSSLKASDTAMYYCARIYYFGRLYFDFWGAGTLVTVSS VL: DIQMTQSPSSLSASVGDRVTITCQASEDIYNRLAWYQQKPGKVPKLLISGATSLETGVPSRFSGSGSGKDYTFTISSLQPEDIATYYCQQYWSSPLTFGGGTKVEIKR', '0.567 µg/mL'),
  ('XENP36041 H2.91_L1 (antibody, V domains shown) VH: EVQLVQSGAEVKKPGESLRISCKTSGYTFTEYTMHWVRQMPGKSLEWMGGIDPNNFNTHYNQKFQGHVTISVDKSISTAYLQWSSLKASDTAMYYCARIYYFGRLYFDFWGAGTLVTVSS VL: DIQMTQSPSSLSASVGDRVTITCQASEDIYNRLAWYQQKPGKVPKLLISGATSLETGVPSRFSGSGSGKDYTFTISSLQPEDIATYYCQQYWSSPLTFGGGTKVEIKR', '0.449 µg/mL'),
  ('XENP35886 H1.22_L1 (antibody, V domains shown) VH: QVQLVQSGAEVKKPGASVKVSCKTSGYTFTEYTMHWVRQAPGQSLEWMGGIDPNNGNTHYNQKFQGRVTITVDKSASTAYMELSSLRSEDTAVYYCARILYFGRLYFDFWGAGTLVTVSS VL: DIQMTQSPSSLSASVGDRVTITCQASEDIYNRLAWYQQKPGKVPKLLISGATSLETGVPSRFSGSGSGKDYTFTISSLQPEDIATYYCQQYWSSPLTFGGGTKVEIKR', '0.941 µg/mL'),
  ('XENP35929 H2_L1.107 (antibody, V domains shown) VH: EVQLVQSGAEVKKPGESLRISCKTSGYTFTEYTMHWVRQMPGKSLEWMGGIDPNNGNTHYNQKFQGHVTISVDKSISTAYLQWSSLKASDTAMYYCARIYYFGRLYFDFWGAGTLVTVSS VL: DIQMTQSPSSLSASVGDRVTITCQASEDIYNRLAWYQQKPGKVPKLLISGATSLETGVPSRFSGSGSGKDYTFTISSLQPEDIATYYCQQYWSAPLTFGGGTKVEIKR', '0.792 µg/mL'),
  ('XENP35890 H2.11_L1 (antibody, V domains shown) VH: EVQLVQSGAEVKKPGESLRISCKTSGYSFTEYTMHWVRQMPGKSLEWMGGIDPNNGNTHYNQKFQGHVTISVDKSISTAYLQWSSLKASDTAMYYCARIYYFGRLYFDFWGAGTLVTVSS VL: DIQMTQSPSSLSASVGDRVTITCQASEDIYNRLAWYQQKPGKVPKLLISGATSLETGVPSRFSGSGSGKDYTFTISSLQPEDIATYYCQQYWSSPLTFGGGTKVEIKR', '0.408 µg/mL');
